The measurements presented in this section are drawn from ChEMBL document CHEMBL5385864.

- Subject Of Test: Serine/threonine-protein kinase pim-1 (Homo sapiens, UniProt P11309)
- Sequence (P11309 whole entry): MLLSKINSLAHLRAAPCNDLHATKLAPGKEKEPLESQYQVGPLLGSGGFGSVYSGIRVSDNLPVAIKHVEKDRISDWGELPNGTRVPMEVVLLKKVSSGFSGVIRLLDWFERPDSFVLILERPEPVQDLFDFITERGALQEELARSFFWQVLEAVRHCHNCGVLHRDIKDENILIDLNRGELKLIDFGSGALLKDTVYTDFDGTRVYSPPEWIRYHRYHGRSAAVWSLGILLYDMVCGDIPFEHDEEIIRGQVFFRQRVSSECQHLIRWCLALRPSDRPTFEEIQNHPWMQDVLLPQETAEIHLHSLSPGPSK
Parameter: IC50

Serine/threonine-protein kinase pim-1 (Homo sapiens, UniProt P11309) data for O=C(O)c1ccc(Cc2coc3cc(O)ccc23)cc1 ; its IC50: 26.4 µM
